Each recorded value in this set is attributed to ChEMBL document CHEMBL1926543.

# reported pIC50; entries follow
Test system: HCT-116
Test: Cytotoxicity against human HCT116 cells after 72 hrs by MTT assay
Type: functional, cell-based
Details: HCT-116, 72 h
pIC50: −log10 of the molar value.
measureName: pIC50

1. CCCCn1nnc2cc3c4c(cccc4c21)C(=O)N(CCCN(C)C)C3=O = 5.20
2. CN(C)CCCN1C(=O)c2cccc3c2c(cc2nnn(C)c23)C1=O = 5.87
3. CN(C)CCCN1C(=O)c2cccc3c2c(cc2nnn(CCN(C)C)c23)C1=O = 6.41

====

# reported IC50; entries follow
Assay: Cytotoxicity against human U87MG cells after 72 hrs by MTT assay
Assay type: functional, cell-based, U-87MG ATCC
Conditions: U-87 MG
measureName: IC50 (nM)

1) CN(C)CCN1C(=O)c2cccc3cc(Nc4ccc([N+](=O)[O-])cc4)cc(c23)C1=O = 620
2) COc1ccc(Nc2cc3c4c(cccc4c2)C(=O)N(CCN(C)C)C3=O)cc1 = 2520
3) CN(C)CCCn1nnc2cc3c4c(cccc4c21)C(=O)N(CCN(C)C)C3=O = 140
4) CN(C)CCCN1C(=O)c2cccc3c2c(cc2nnn(CCN(C)C)c23)C1=O = 370
